Biological target: ~100 representative kinases (Homo sapiens, UniProt P45985)
Construct: Recombinant protein kinase domains with a concentration of 2 μM
Sequence (P45985 whole entry, the tested form may be a part): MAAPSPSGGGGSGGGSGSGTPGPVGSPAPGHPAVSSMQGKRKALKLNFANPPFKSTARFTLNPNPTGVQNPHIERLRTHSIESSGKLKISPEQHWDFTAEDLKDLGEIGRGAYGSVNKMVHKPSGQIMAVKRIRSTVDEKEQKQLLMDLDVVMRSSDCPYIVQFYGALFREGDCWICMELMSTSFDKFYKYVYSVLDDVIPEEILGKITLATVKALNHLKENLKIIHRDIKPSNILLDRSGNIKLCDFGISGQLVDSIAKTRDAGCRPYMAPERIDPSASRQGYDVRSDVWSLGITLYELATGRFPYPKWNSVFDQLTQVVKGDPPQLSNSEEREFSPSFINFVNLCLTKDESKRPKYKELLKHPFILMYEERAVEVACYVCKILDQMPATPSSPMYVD
Test: DSF 100 kinase selectivity screen;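 further: compound tested at 20 µM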
Assay type: binding
Conditions: protein MAP2K4; average of three replicates
VALUE TYPE: dTm (K)
Reply numerically in K, unit not repeated.

Q: Record lookup: for ~100 representative kinases (Homo sapiens, UniProt P45985), what dTm belongs to O=C(Nc1cccc(-c2c[nH]c3ncnc(N4CCOCC4)c23)c1)C1(C(=O)Nc2cccc3c2CCC3)CC1 ?
A: 5.91

Q: Param readout = dTm; param system = ~100 representative kinases (Homo sapiens, UniProt P45985); param query = Cc1ccc(NC(=O)C2(C(=O)Nc3cccc(-c4c[nH]c5ncnc(N6CCOCC6)c45)c3)CC2)cc1 ; response: value
A: 5.95

Moving on to the next compound.
Q: Please provide the recorded dTm for O=C(Nc1ccc(F)cc1)C1(C(=O)Nc2cccc(-c3c[nH]c4ncnc(N5CCOCC5)c34)c2)CC1 , tested on ~100 representative kinases (Homo sapiens, UniProt P45985).
A: 4.96

###

Target: ~100 representative kinases (Homo sapiens, UniProt P55201)
Construct: Recombinant protein kinase domains with a concentration of 2 μM
Sequence (P55201 whole entry, the tested form may be a part): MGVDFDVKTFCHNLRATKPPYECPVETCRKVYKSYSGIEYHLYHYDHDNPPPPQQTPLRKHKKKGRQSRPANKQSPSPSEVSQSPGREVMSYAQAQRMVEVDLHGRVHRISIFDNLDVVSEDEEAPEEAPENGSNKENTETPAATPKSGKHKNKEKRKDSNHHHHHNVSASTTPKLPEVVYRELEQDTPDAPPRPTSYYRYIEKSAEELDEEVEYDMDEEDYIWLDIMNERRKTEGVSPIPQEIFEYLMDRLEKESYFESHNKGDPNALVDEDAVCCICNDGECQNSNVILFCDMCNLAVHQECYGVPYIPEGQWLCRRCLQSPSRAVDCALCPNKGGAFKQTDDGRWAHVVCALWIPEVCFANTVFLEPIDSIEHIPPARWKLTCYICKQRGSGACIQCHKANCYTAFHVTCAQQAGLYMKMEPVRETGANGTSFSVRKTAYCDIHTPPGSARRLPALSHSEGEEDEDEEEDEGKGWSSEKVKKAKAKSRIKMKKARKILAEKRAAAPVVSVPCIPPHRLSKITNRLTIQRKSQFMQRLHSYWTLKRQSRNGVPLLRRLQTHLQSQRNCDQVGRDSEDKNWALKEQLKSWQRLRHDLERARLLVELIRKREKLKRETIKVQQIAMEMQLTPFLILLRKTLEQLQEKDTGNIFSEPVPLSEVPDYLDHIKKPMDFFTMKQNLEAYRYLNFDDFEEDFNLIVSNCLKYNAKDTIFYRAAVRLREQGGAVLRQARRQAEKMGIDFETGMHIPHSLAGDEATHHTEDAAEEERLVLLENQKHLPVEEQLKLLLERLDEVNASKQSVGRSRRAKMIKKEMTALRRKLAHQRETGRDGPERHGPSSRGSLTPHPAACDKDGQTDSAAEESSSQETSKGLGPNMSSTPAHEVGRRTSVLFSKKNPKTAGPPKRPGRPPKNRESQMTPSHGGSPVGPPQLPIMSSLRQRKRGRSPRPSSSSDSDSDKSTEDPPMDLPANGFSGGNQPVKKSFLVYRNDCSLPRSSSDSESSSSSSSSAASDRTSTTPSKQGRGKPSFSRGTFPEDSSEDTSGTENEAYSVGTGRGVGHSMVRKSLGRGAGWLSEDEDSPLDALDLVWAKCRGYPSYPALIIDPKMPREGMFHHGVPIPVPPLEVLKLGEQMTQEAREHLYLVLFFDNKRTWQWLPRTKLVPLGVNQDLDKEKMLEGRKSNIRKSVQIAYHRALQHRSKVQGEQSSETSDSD
Test: DSF 100 kinase selectivity screen;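 further: compound tested at 20 µM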
Assay type: binding
Settings: Protein BRPF1; average of three replicates
VALUE TYPE: dTm (K)
Entry rule: numbers only, all in K.

Some solved cases for reference:
Q: What value of dTm has been reported for the following compound? COc1ccc(NC(=O)C2(C(=O)Nc3cccc(-c4c[nH]c5ncnc(N6CCOCC6)c45)c3)CC2)cc1 [Compound 16]
A: -0.96

Q: Param item = CCNc1nc(Nc2cc(F)c(C(=O)N3CCOCC3)cc2OC)ncc1C(F)(F)F [GNE-7915] ; retrieve measured dTm.
A: -1.14

Q: Look up dTm for this compound: O=C(Nc1cccc(-c2c[nH]c3ncnc(N4CCOCC4)c23)c1)C1(C(=O)Nc2ccc(F)cc2F)CC1 [Compound 23]
A: 0.18

Q: Item under review: O=C(Nc1cccc(-c2c[nH]c3ncnc(N4CCOCC4)c23)c1)C1(C(=O)Nc2cc(Br)c(F)cc2F)CC1 [Compound 25] . Reported dTm?
A: 1.93

Q: Which dTm is reported for this compound? CCc1ccc(NC(=O)C2(C(=O)Nc3cccc(-c4c[nH]c5ncnc(N6CCOCC6)c45)c3)CC2)cc1 [Compound 15]
A: -0.75

More entries:
Q: Which dTm is reported for this compound? Cc1ccc(C(=O)Nc2ccc(CN3CCN(C)CC3)c(C(F)(F)F)c2)cc1C#Cc1c[nH]c2ncnc(N3CCOCC3)c12 [Compound 1]
A: -0.28

Q: // query dTm value for entry Cc1ccc(NC(=O)C2(C(=O)Nc3cccc(-c4c[nH]c5ncnc(N6CCOCC6)c45)c3)CC2)cc1 [Compound 14]
A: -0.72

Q: Give the measured dTm of COc1cc(NC(=O)C2(C(=O)Nc3cccc(-c4c[nH]c5ncnc(N6CCOCC6)c45)c3)CC2)ccc1F [Compound 21] .
A: -0.32

Q: So what does the record say about dTm for COc1cc(C(=O)N2CCOCC2)c(F)cc1Nc1nc(N(C)C)c2c(Cl)c[nH]c2n1 [Compound 36] ?
A: -1.63

Q: Consider the compound Cn1cc(-c2c[nH]c3ncnc(N4CCOCC4)c23)cc1C#N [PFE-360] and give its measured dTm.
A: -1.30

Q: Using the record for O=C(Nc1ccc(F)cc1)C1(C(=O)Nc2cccc(-c3c[nH]c4ncnc(N5CCOCC5)c34)c2)CC1 [Compound 2] , report its dTm.
A: 0.13

Q: Name the reported dTm value associated with the compound Cc1ccc(-n2nc(C(C)(C)C)cc2NC(=O)Nc2cccc(-c3c[nH]c4ncnc(N5CCOCC5)c34)c2)cc1 [Compound 29]
A: 0.08

Q: Which dTm reading was recorded for the compound CC(C)(C)c1cccc(NC(=O)C2(C(=O)Nc3cccc(-c4c[nH]c5ncnc(N6CCOCC6)c45)c3)CC2)c1 [Compound 22] ?
A: 1.91

Q: GET /values?readout=dTm&item= O=C(Nc1cccc(-c2c[nH]c3ncnc(N4CCOCC4)c23)c1)C1(C(=O)Nc2ccc(F)c(Br)c2)CC1 [Compound 19]
A: 2.17

Q: Fill blank: measured dTm of the compound O=C(Nc1cccc(-c2c[nH]c3ncnc(N4CCOCC4)c23)c1)C1(C(=O)Nc2ccc(F)c(F)c2)CC1 [Compound 17] is ____.
A: 0.79

Q: Sample C[C@@H]1CN(c2cc(-c3n[nH]c4ccc(OC5(C)CC5)cc34)ncn2)C[C@H](C)O1 [MLi2] — what was its dTm?
A: -1.36

Q: Given the entry O=C(Nc1cccc(-c2c[nH]c3ncnc(N4CCOCC4)c23)c1)C1(C(=O)Nc2ccc(F)c(Br)c2F)CC1 [Compound 26] , report its measured dTm.
A: 1.97

Q: Field request: dTm | item: CC(=O)N1CCN(c2nc(Cl)nc3[nH]cc(-c4cccc(NC(=O)Nc5cc(C(C)(C)C)nn5-c5ccc(C)cc5)c4)c23)CC1 [Compound 31]
A: -0.70

Q: Dear colleague, I am looking for the recorded dTm of the following compound: Cc1ccc(-n2nc(C(C)(C)C)cc2NC(=O)Nc2cccc(-c3c[nH]c4nc(Cl)nc(N5CCOCC5)c34)c2)cc1 [Compound 30]
A: -1.99

Q: // lookup dTm for Cc1ccc(C(=O)Nc2ccc(CN3CCN(C)CC3)c(C(F)(F)F)c2)cc1C#Cc1cnc2[nH]ncc2c1 [GZD-824, reference compound]
A: -0.65

Q: What does the record list as dTm for CNC(=O)c1cc(Oc2ccc(NC(=O)Nc3cc(C(C)(C)C)nn3-c3ccc4ncccc4c3)c(F)c2)ccn1 [Rebastinib, reference compound] ?
A: 1.88

Q: Which dTm value belongs to COc1cc2c(Oc3ccc(NC(=O)C4(C(=O)Nc5ccc(F)cc5)CC4)cc3F)ccnc2cc1OCCCN1CCOCC1 [Foretinib, reference compound] ?
A: 0.26

###

Molecular target: ~100 representative kinases (Homo sapiens)
Construct: Recombinant protein kinase domains with a concentration of 2 μM
Assay: DSF 100 kinase selectivity screen;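 further: compound tested at 20 µM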
Type: binding
Conditions: Protein STK39; DSF; average of three replicates
Recorded dTm determines the label; the label ranges are low: < 1 K; medium: ≥ 1 K and < 3 K; high: ≥ 3 K

Examples from the recorded data:
Q: Which of the defined bands does the recorded dTm of Cc1ccc(-n2nc(C(C)(C)C)cc2NC(=O)Nc2cccc(-c3c[nH]c4ncnc(N5CCOCC5)c34)c2)cc1 [Compound 29] sit within?
A: high

Q: Lab log: Cc1cc(NC(=O)C2(C(=O)Nc3cccc(-c4c[nH]c5ncnc(N6CCOCC6)c45)c3)CC2)ccc1F [Compound 20] — assign dTm category
A: high

Further cases:
Q: State the class of the compound shown: Cc1ccc(NC(=O)C2(C(=O)Nc3cccc(-c4c[nH]c5ncnc(N6CCOCC6)c45)c3)CC2)cc1 [Compound 14]
A: medium

Q: Record COc1ccc(NC(=O)C2(C(=O)Nc3cccc(-c4c[nH]c5ncnc(N6CCOCC6)c45)c3)CC2)cc1 [Compound 16] — which class?
A: low

###

Molecular target: ~100 representative kinases (Homo sapiens)
Construct: Recombinant protein kinase domains with a concentration of 2 μM
Test: DSF 100 kinase selectivity screen;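 further: compound tested at 20 µM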
Format: binding
Conditions: Protein CLK1; average of three replicates
VALUE TYPE: dTm (K)
The reply should be a number in K, with the unit left off.

Q: Form: Entry = CCc1ccc(NC(=O)C2(C(=O)Nc3cccc(-c4c[nH]c5ncnc(N6CCOCC6)c45)c3)CC2)cc1 [Compound 15] | System = ~100 representative kinases (Homo sapiens) | dTm = ____
A: 6.65

Q: Kindly state the measured dTm obtained for Cc1cc(F)ccc1NC(=O)C1(C(=O)Nc2cccc(-c3c[nH]c4ncnc(N5CCOCC5)c34)c2)CC1 [Compound 24] with ~100 representative kinases (Homo sapiens).
A: 5.49

Q: Query the reported dTm for ~100 representative kinases (Homo sapiens); item: COc1cc(C(=O)N2CCOCC2)c(F)cc1Nc1nc(N(C)C)c2c(Cl)c[nH]c2n1 [Compound 36]
A: 8.96

More entries:
Q: Form entry - test system: ~100 representative kinases (Homo sapiens); read-out: dTm; compound: CC(C)(C)c1cccc(NC(=O)C2(C(=O)Nc3cccc(-c4c[nH]c5ncnc(N6CCOCC6)c45)c3)CC2)c1 [Compound 22]
A: 7.58

###

Target: ~100 representative kinases (Homo sapiens, UniProt P17948)
Construct: Recombinant protein kinase domains with a concentration of 2 μM
Sequence (P17948 27-1338): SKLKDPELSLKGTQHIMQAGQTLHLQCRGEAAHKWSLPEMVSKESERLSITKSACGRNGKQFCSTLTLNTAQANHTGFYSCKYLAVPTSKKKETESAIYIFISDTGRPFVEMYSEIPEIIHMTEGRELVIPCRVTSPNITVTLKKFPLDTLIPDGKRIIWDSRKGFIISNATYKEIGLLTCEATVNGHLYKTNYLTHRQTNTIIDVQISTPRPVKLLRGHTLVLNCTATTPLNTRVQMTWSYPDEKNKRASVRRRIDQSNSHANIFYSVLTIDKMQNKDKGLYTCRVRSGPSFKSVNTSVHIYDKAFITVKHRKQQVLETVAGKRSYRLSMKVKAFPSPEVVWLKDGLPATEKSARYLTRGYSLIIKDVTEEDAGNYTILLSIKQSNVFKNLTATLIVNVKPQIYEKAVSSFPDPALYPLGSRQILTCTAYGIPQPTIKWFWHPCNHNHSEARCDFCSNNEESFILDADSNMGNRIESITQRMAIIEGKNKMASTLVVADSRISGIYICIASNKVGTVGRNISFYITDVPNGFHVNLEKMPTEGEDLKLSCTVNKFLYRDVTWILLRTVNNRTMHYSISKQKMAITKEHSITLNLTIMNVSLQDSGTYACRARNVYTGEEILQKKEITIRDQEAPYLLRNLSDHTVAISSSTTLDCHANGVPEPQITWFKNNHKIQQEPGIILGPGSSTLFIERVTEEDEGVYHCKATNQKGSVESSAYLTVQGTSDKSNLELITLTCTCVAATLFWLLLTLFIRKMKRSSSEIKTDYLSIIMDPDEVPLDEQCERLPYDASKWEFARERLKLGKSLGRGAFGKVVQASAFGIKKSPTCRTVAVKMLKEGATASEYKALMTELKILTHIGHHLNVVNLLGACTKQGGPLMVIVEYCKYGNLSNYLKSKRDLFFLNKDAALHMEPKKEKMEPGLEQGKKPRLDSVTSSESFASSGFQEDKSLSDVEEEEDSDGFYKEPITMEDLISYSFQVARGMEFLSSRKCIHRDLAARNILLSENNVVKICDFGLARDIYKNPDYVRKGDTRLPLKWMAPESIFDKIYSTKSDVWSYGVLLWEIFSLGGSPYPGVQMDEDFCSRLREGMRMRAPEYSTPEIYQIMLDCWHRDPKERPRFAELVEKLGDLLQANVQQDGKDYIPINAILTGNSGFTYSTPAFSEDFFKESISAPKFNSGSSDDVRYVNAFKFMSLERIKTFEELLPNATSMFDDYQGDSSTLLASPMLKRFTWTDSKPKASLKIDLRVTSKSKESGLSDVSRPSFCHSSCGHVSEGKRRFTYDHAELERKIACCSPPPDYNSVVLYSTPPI
Experiment: DSF 100 kinase selectivity screen;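 further: compound tested at 20 µM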
Type: binding
Details: protein FLT1; average of three replicates
VALUE TYPE: dTm

Consider the worked cases shown below.
Q: Can you share its dTm? I mean this molecule: Cc1ccc(NC(=O)C2(C(=O)Nc3cccc(-c4c[nH]c5ncnc(N6CCOCC6)c45)c3)CC2)cc1 [Compound 14]
A: 4.17 K

Q: Param item = Cc1ccc(C(=O)Nc2ccc(CN3CCN(C)CC3)c(C(F)(F)F)c2)cc1C#Cc1cnc2[nH]ncc2c1 [GZD-824, reference compound] ; retrieve measured dTm.
A: 22.54 K

Q: Quick one: dTm of CCNc1nc(Nc2cc(F)c(C(=O)N3CCOCC3)cc2OC)ncc1C(F)(F)F [GNE-7915] ?
A: 1.69 K

Q: Query (molecule): O=C(Nc1ccc(F)cc1)C1(C(=O)Nc2cccc(-c3c[nH]c4ncnc(N5CCOCC5)c34)c2)CC1 [Compound 2] ; field requested: dTm
A: 3.90 K

Q: Field request: dTm | item: COc1cc(S(C)(=O)=O)ccc1Nc1nc(N(C)C)c2c(Cl)c[nH]c2n1 [Compound 37]
A: -0.32 K

Q: Give the measured dTm of O=C(Nc1cccc(-c2c[nH]c3ncnc(N4CCOCC4)c23)c1)C1(C(=O)Nc2ccc(F)cc2F)CC1 [Compound 23] .
A: 3.92 K

Q: Which value of dTm has been reported for O=C(Nc1cccc(-c2c[nH]c3ncnc(N4CCOCC4)c23)c1)C1(C(=O)Nc2ccc(F)c(Br)c2)CC1 [Compound 19] in the records?
A: 3.75 K

Q: Fill blank: measured dTm of the molecule Cn1cc(-c2c[nH]c3ncnc(N4CCOCC4)c23)cc1C#N [PFE-360] is ____.
A: 2.46 K

Next molecule, please.
Q: Which dTm is listed for CC(C)(C)c1cc(NC(=O)Nc2cccc(-c3c[nH]c4ncnc(N5CCOCC5)c34)c2)n(-c2ccc3ncccc3c2)n1 [Compound 28] ?
A: 12.33 K
